Biological target: fructokinase (LC500344) (Hyaloperonospora arabidopsidis)
Construct: coding region in pGEX5X-1, N-terminal GST tag kept (58 kDa with tag), expressed in E. coli SoluBL21, GSTrap purified; equivalent to Hpa812304 of isolate Emoy2
Sequence (A0A7G1GEU5 1-297): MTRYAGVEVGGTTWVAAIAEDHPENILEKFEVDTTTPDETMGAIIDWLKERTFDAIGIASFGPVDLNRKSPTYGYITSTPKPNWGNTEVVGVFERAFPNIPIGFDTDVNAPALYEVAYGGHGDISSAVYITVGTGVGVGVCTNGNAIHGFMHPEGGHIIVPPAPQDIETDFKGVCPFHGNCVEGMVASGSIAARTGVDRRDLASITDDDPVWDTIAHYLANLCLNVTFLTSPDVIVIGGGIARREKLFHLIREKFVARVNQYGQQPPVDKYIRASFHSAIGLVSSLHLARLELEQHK
Assay: Dixon plot; coupled pyruvate kinase/lactate dehydrogenase NADH assay at […] nm
Conditions: competitive with D-fructose (0.5-2.5 mM); 10-250 mM D-tagatose; 4 mM ATP, 8 mM MgCl2, pH 7.5, 25 °C; D-tagatose is also a substrate
pKi: −log10 of the molar value.
Readout name: pKi

compound="OCC1(O)OC[C@@H](O)[C@H](O)[C@@H]1O (stereo partly shown)" assayed_system="fructokinase (LC500344) (Hyaloperonospora arabidopsidis)" endpoint_value=1.15

Entry source: paper PMC7406649
